In this section we review reported IC50 values for a set of compounds.
Target: hP2X7 (Homo sapiens, UniProt Q99572)
Construct: 1321N1 cells stably expressing the full length human P2X7 gene (1321N1-hP2X7); expressed in transfected cells
Sequence (Q99572 whole entry): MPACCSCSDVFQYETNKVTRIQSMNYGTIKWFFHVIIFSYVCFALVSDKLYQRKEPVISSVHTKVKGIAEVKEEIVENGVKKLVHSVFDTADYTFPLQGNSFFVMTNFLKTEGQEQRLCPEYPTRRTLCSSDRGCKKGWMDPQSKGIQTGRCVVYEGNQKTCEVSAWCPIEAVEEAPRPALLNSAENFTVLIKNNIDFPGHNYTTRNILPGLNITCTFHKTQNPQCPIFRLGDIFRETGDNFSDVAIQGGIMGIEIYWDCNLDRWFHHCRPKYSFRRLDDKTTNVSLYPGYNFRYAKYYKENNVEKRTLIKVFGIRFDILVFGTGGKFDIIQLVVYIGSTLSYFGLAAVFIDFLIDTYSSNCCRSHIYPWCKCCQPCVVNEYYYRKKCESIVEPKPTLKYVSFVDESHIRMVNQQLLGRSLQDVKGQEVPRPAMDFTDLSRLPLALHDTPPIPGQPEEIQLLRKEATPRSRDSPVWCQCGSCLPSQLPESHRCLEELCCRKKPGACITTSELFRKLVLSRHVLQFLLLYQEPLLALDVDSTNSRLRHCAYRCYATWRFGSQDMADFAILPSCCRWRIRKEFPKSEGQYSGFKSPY
Procedure text: Intracellular Calcium Flux (FLIPR) Assay
Format: cell-based
Particulars: 1321N1 cells stably expressing human P2X7; agonist 100 μM BzATP; 20 min equilibration with antagonist; read-out: FLIPR pIC50 hP2X7-1321n1 (converted)

Compound	Target	Units label	IC50
O=C(NCc1cccs1)[C@@H]1CCCN(c2cccc3c2C(=O)N(Cc2ccncc2)C3=O)C1	hP2X7 (Homo sapiens, UniProt Q99572)	nM	437
COCCN1Cc2c(ccc(Cl)c2NC(=O)Cc2ccc(F)c(C(F)(F)F)c2)C1=O	hP2X7 (Homo sapiens, UniProt Q99572)	nM	891
O=C(NCc1ccccc1OC(F)(F)F)[C@@H]1CCCN(c2cccc3c2C(=O)N(Cc2ccncc2)C3=O)C1	hP2X7 (Homo sapiens, UniProt Q99572)	nM	851
CSc1ccccc1CNC(=O)[C@@H]1CCCN(c2cccc3c2C(=O)N(Cc2ccncc2)C3=O)C1	hP2X7 (Homo sapiens, UniProt Q99572)	nM	30.9
O=C(NCC1COCCO1)[C@@H]1CCCN(c2cccc3c2C(=O)N(Cc2ccncc2)C3=O)C1 (some centres unmarked)	hP2X7 (Homo sapiens, UniProt Q99572)	nM	912
COc1ccccc1CNC(=O)[C@@H]1CCCN(c2cccc3c2C(=O)N(Cc2ccncc2)C3=O)C1	hP2X7 (Homo sapiens, UniProt Q99572)	nM	55
C[C@H](CO)N1Cc2c(ccc(Cl)c2NC(=O)CC23CC4CC(CC(C4)C2)C3)C1=O [Compound I-18a]	hP2X7 (Homo sapiens, UniProt Q99572)	nM	39.8
COc1ccccc1NC(=O)[C@@H]1CCCN(c2cccc3c2C(=O)N(Cc2ccncc2)C3=O)C1	hP2X7 (Homo sapiens, UniProt Q99572)	nM	724
